Biological target: Akt1 (Homo sapiens, UniProt P31749, S473D)
Construct: The version of Akt used in these studies lacks the pleckstrin homology (PH) domain
Sequence (P31749 118-480 S473D limits assumed, species assumed): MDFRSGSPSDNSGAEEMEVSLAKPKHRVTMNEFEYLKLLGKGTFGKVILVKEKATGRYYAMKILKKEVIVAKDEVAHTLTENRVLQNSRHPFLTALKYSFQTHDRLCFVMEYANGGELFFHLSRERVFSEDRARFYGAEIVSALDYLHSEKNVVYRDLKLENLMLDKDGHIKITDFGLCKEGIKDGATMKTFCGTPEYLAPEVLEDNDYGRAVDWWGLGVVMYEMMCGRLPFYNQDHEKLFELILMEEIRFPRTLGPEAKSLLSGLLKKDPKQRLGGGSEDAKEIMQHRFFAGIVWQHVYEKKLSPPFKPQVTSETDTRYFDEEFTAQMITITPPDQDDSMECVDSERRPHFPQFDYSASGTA
Test: Akt1 kinase assay, fluorescence polarization (IMAP)
Type: biochemical
Details: average Akt kinase activity (IC50); read-out: Avg Akt kinase, μM (50% inhibition)
ENDPOINT LABEL: IC50 (µM)

(P) N[C@]1(CNC(=O)c2ccc(F)cc2F)CCN(c2ncnc3[nH]cc(Cl)c23)C1
(Q) N[C@]1(CNC(=O)c2ccc(Cl)cc2F)CCN(c2ncnc3[nH]cc(Cl)c23)C1
(Q) For this pair, P and Q , which shows a numerically higher IC50? Output the label that corresponds to your choice.
(A) Q
(Q: 0.0111 µM, P: 0.00163 µM)

(P) CCc1c[nH]c2ncnc(N3CC[C@](N)(CNC(=O)c4ccc(Cl)cc4F)C3)c12
(Q) Cc1c[nH]c2ncnc(N3CC[C@](N)(CNC(=O)c4ccc(Cl)cc4F)C3)c12
(Q) Kindly identify the item with the lower IC50 figure among these two: P and Q # reply format: chosen label
(A) P

###

Target: Akt1 (Homo sapiens, UniProt P31749, S473D)
Construct: The version of Akt used in these studies lacks the pleckstrin homology (PH) domain
Assay: Akt1 kinase assay, fluorescence polarization (IMAP)
Type: biochemical
Details: Table 3; read-out: Avg Akt kinase, μM (50% inhibition)
Description: The Akt1 kinase assay is based on the measurement of fluorescence polarization using IMAP technology (Molecular Devices Corporation #R8062). […] Plates are read on a Victor Plate Reader with the following settings: CW lamp filter: 544 nm, emission filter: 615 nm. Control values from wells lacking Akt protein are subtracted from the gross readings, and IC50 values are calculated using XLDA.
ENDPOINT LABEL: IC50 (µM)

Recorded results for 5 molecules are shown here.
{"columns": ["MOLECULE", "IC50 / µM"],
 "data": [
  ["Cc1c[nH]c2ncnc(N3CC[C@](N)(CNc4cccc(C(F)(F)F)c4)C3)c12", 0.00226],
  ["COC(=O)c1ccccc1NCC1(N)CCN(c2ncnc3[nH]nc(C)c23)C1 (centres unmarked)", 0.394],
  ["Cc1c[nH]c2ncnc(N3CCC(N)(CNc4cccc(F)c4F)C3)c12 (centres unmarked)", 0.0105],
  ["Cc1c[nH]c2ncnc(N3CCC(N)(CN4CCc5ccccc54)C3)c12 (centres unmarked)", 0.0362],
  ["Cc1c(F)cccc1NCC1(N)CCN(c2ncnc3[nH]cc(C)c23)C1 (centres unmarked)", 0.00952]
]}

(1) Cc1c[nH]c2ncnc(N3CCC(N)(CNc4cccc(Cl)c4Cl)C3)c12 (centres unmarked)
(2) N#Cc1n[nH]c2ncnc(N3CCC(N)(CNc4cccc(Cl)c4)C3)c12 (centres unmarked)
(Q) Form: Entry with minimum IC50 (choose one): 1 / 2 Could you answer with the label of the item you picked?
(A) 1

(A) Cc1c[nH]c2ncnc(N3CCC(N)(CNc4cccc(OC(F)(F)F)c4)C3)c12 (centres unmarked)
(B) Cc1c[nH]c2ncnc(N3CCC(N)(CN(C)Cc4ccc(Cl)cc4)C3)c12 (centres unmarked)
(C) CCc1c[nH]c2ncnc(N3CCC(N)(CNc4cccc(C(F)(F)F)c4)C3)c12 (centres unmarked)
(D) Cc1c[nH]c2ncnc(N3CCC(N)(CNCC4CC4)C3)c12 (centres unmarked)
(E) Cc1c[nH]c2ncnc(N3CCC(N)(CNc4cccc(C(F)(F)F)c4)C3)c12 (centres unmarked)
(Q) Sort low-to-high on IC50, please. Reply with the labels, ordered as the question asks.
(A) C, E, A, B, D

(A) Cc1c[nH]c2ncnc(N3CCC(N)(CNc4ccc(C#N)c(Cl)c4)C3)c12 (centres unmarked)
(B) Cc1c[nH]c2ncnc(N3CCC(N)(CN(C)c4ccccc4)C3)c12 (centres unmarked)
(Q) Given A and B , report the one with the higher recorded IC50. Select an item and report its label.
(A) B

(A) COc1cc(NCC2(N)CCN(c3ncnc4[nH]cc(C)c34)C2)cc(C(F)(F)F)c1 (centres unmarked)
(B) Cc1c[nH]c2ncnc(N3CC[C@](N)(CNc4ccc(Cl)cc4)C3)c12
(Q) Which is greater in IC50, the first item A or the second item B ? Refer to your chosen entry by its label in the reply.
(A) A

(a) Cc1c[nH]c2ncnc(N3CCC(N)(CNc4ccc(S(=O)(=O)NCc5ccccc5)cc4)C3)c12 (centres unmarked)
(b) Cc1c[nH]c2ncnc(N3CCC(N)(CN4CCCc5ccccc54)C3)c12 (centres unmarked)
(c) Cc1c[nH]c2ncnc(N3CCC(N)(CNc4cccc(-c5cnco5)c4)C3)c12 (centres unmarked)
(d) N#Cc1n[nH]c2ncnc(N3CCC(N)(CNc4cccc(Cl)c4F)C3)c12 (centres unmarked)
(Q) Arrange the 4 molecules by rising IC50, starting with the smallest. Answer with the labels in sequence, matching the requested order.
(A) a, d, b, c

(P) N#Cc1c[nH]c2ncnc(N3CCC(N)(CNc4cccc(C(F)(F)F)c4F)C3)c12 (centres unmarked)
(Q) Cc1c[nH]c2ncnc(N3CCC(N)(CNCCN(C)C)C3)c12 (centres unmarked)
(R) Cc1c[nH]c2ncnc(N3CCC(N)(CNc4cccc(Cl)c4F)C3)c12 (centres unmarked)
(S) Cc1ccn2ncnc(N3CCC(N)(CNc4cccc(Cl)c4Cl)C3)c12 (centres unmarked)
(T) Cc1n[nH]c2ncnc(N3CCC(N)(CNc4cccc(Cl)c4F)C3)c12 (centres unmarked)
(Q) Arrange these molecules by their IC50, starting with the largest number. Reply with the labels, ordered as the question asks.
(A) Q, T, P, R, S

(P) Cc1c[nH]c2ncnc(N3CCC(N)(CNc4ccc(F)cc4F)C3)c12 (centres unmarked)
(Q) Cc1c[nH]c2ncnc(N3CC[C@](N)(CNc4cccc(F)c4)C3)c12
(Q) Which of these two has the smaller recorded IC50: P or Q ? Field: selected label. Fill in the label of the entry you choose.
(A) Q
(Q: 0.00329 µM, P: 0.00771 µM)

(a) N#Cc1c[nH]c2ncnc(N3CCC(N)(CNc4cccc5c4CCCC5)C3)c12 (centres unmarked)
(b) Cc1c[nH]c2ncnc(N3CCC(N)(CNc4ccc(CC(N)=O)cc4)C3)c12 (centres unmarked)
(Q) Between the two listed entries a and b , which has its IC50 at the higher number? Write the label of whichever entry you select.
(A) b
